Reported pEC50 is given for each of the following compounds.
Tested on: HIV-1 (IIIB)
Test: Inhibition of HIV-1 (IIIB)-induced cytopathicity (giant cell formation) in CEM cells
Format: cell-based
Details: read-out: EC50 HIV-1 (concentration required to inhibit HIV-induced giant cell formation by 50%); HIV-1, CEM cell cultures
Entry type: numeric. Quantity: pEC50, the -log10 of concentration in molar units.

Reference set (2 entries):
q: For CCCCc1ccc(CN2CCN(Cc3c(O)cc4c(c3O)-c3cc(ccc3O)C3NC(=O)C5NC(=O)C6NC(=O)C(Cc7ccc(c(Cl)c7)Oc7cc5cc(c7O)Oc5ccc(cc5Cl)C(O)C(NC3=O)C(=O)NC4C(=O)NCCCN(C)C)NC(=O)C(N)c3ccc(O)c(c3)Oc3cc(O)cc6c3)CC2)cc1 (stereo not shown) , what is its reported pEC50?
a: 5.52

q: What pEC50 value was documented for this compound, CN(C)CCCNC(=O)C1NC(=O)C2NC(=O)C(NC(=O)C3NC(=O)C4NC(=O)C(Cc5ccc(c(Cl)c5)Oc5cc3cc(c5O)Oc3ccc(cc3Cl)C2O)NC(=O)C(N)c2ccc(O)c(c2)Oc2cc(O)cc4c2)c2ccc(O)c(c2)-c2c1cc(O)c(CN1CCN(Cc3ccc(-c4ccccc4)cc3)CC1)c2O (stereo not shown) ?
a: 5.46

New cases:
q: Need pEC50 of NC1C(=O)NC2Cc3ccc(c(Cl)c3)Oc3cc4cc(c3O)Oc3ccc(cc3Cl)C(O)C3NC(=O)C(NC(=O)C4NC(=O)C(NC2=O)c2cc(O)cc(c2)Oc2cc1ccc2O)c1ccc(O)c(c1)-c1c(cc(O)c(CN2CCN(N=Cc4ccc(Cl)cc4)CC2)c1O)C(C(=O)O)NC3=O (stereo not shown) , thanks.
a: 5.10

q: Data request, read-out pEC50, for CN[C@H](CC(C)C)C(=O)N[C@H]1C(=O)N[C@@H](CC(N)=O)C(=O)N[C@H]2C(=O)N[C@H]3C(=O)N[C@H](C(=O)N[C@H](C(=O)O)c4cc(O)cc(O)c4-c4cc3ccc4O)[C@H](O)c3ccc(c(Cl)c3)Oc3cc2cc(c3O)Oc2ccc(cc2Cl)[C@H]1O
a: 4.19

* * *

Test system: HEL cells
Conditions: read-out: CC50 (HEL); HEL cell proliferation
Recorded CC50 values for a group of molecules are listed next.
Write the answer as a number in µM, unit excluded.

q: Fill blank: measured CC50 of the molecule CCCCOc1ccc(CNCCOc2c3cc4cc2Oc2ccc(cc2Cl)C(O)C2NC(=O)C(NC(=O)C4NC(=O)C4NC(=O)C(Cc5ccc(c(Cl)c5)O3)NC(=O)C(NCc3ccc(OCCCC)cc3)c3ccc(O)c(c3)Oc3cc(O)cc4c3)c3ccc(O)c(c3)-c3c(O)cc(O)cc3C(C(=O)O)NC2=O)cc1 (centres unmarked) is ____.
a: 40

Now consider the entry below.
q: Item under review: CN(Cc1ccc(Cl)cc1)Cc1c(O)cc2c(c1O)-c1cc(ccc1O)C1NC(=O)C3NC(=O)C4NC(=O)C(Cc5ccc(c(Cl)c5)Oc5cc3cc(c5O)Oc3ccc(cc3Cl)C(O)C(NC1=O)C(=O)NC2C(=O)O)NC(=O)C(N)c1ccc(O)c(c1)Oc1cc(O)cc4c1 (centres unmarked) . Reported CC50?
a: 50

* * *

Tested on: HIV-2(ROD)
Assay: Inhibition of HIV-2 (ROD)-induced cytopathicity (giant cell formation) in CEM cells
Assay type: cell-based
Conditions: read-out: EC50 HIV-2 (concentration required to inhibit HIV-induced giant cell formation by 50%); HIV-2, CEM cell cultures
OBSERVATION TYPE: EC50
Returns: string containing the number followed by the unit.

q: Endpoint output: EC50 of CCCCCCCCCC[N+](C)(C)CCCNCc1c(O)cc2c(c1O)-c1cc(ccc1O)C1NC(=O)C3NC(=O)C4NC(=O)C(Cc5ccc(c(Cl)c5)Oc5cc3cc(c5O)Oc3ccc(cc3Cl)C(O)C(NC1=O)C(=O)NC2C(=O)NCCC[N+](C)(C)CCCCCCCCCC)NC(=O)C(N)c1ccc(O)c(c1)Oc1cc(O)cc4c1 (stereo not shown) . Value?
a: 4.3 µM

q: // returns reported EC50 for input O=C1NC2C(=O)NC3C(=O)NC4C(=O)NC(C(=O)NC(C(=O)O)c5cc(O)cc(O)c5-c5cc4ccc5O)C(O)c4ccc(c(Cl)c4)Oc4cc3cc(c4O)Oc3ccc(cc3Cl)CC1NC(=O)C(NC(=O)C13CC4CC(CC(C4)C1)C3)c1ccc(O)c(c1)Oc1cc(O)cc2c1 (stereo not shown)
a: 4 µM

q: Look up EC50: CCCCCCCCCCCNC1C(=O)NC2Cc3ccc(c(Cl)c3)Oc3cc4cc(c3O)Oc3ccc(cc3Cl)C(O)C3NC(=O)C(NC(=O)C4NC(=O)C(NC2=O)c2cc(O)cc(c2)Oc2cc1ccc2O)c1ccc(O)c(c1)-c1c(O)cc(O)cc1C(C(=O)NCCCN(C)C)NC3=O (stereo not shown)
a: 12.5 µM

q: Field request: EC50 | item: NC(=O)CC1NC(=O)C(N)C(O)c2ccc(c(Cl)c2)Oc2cc3cc(c2O)Oc2ccc(cc2)C(O)C2NC(=O)C(NC(=O)C3NC1=O)c1ccc(O)c(c1)-c1c(O)cc(O)cc1C(C(=O)NCC13CC4CC(CC(C4)C1)C3)NC2=O (stereo not shown)
a: 3.5 µM

q: Reported EC50 for CCCCc1ccc(CNC2C(Oc3c4cc5cc3Oc3ccc(cc3Cl)C(O)C3NC(=O)C(NC(=O)C5NC(=O)C5NC(=O)C(Cc6ccc(cc6)O4)NC(=O)C(NC)c4ccc(O)c(c4)Oc4cc(O)c(Cl)c5c4)c4ccc(O)c(c4)-c4c(cc(O)c(CN5CCN(Cc6ccc(-c7ccccc7)cc6)CC5)c4O)C(C(=O)O)NC3=O)OC(C(=O)O)C(O)C2O)cc1 (stereo not shown) : what is it?
a: 22 µM

q: I would be grateful if you could share the reported EC50 for CCCCCCCCCC[N+](C)(C)CCCNCc1c(O)cc2c(c1O)-c1cc(ccc1O)C1NC(=O)C3NC(=O)C4NC(=O)C(Cc5ccc(c(Cl)c5)Oc5cc3cc(c5O)Oc3ccc(cc3Cl)C(O)C(NC1=O)C(=O)NC2C(=O)NCCCCCCN)NC(=O)C(N)c1ccc(O)c(c1)Oc1cc(O)cc4c1 (stereo not shown) .
a: 7 µM

Let us examine a further case.
q: What value of EC50 has been reported for the following compound? CN(C)CCCNC(=O)C1NC(=O)C2NC(=O)C(NC(=O)C3NC(=O)C4NC(=O)C(Cc5ccc(c(Cl)c5)Oc5cc3cc(c5O)Oc3ccc(cc3Cl)C2O)NC(=O)C(N)c2ccc(O)c(c2)Oc2cc(O)cc4c2)c2ccc(O)c(c2)-c2c1cc(O)c(CN1CCN(Cc3ccc(-c4ccccc4)cc3)CC1)c2O (stereo not shown)
a: 8.5 µM

* * *

Test system: HEL cells
Details: read-out: CC50 (HEL); HEL cells; anti-CMV table
CC50: recorded values

// below: answered compounds
q: Name the reported CC50 value associated with the compound O=C1NC2C(=O)NC3C(=O)NC4C(=O)NC(C(=O)NC(C(=O)O)c5cc(O)cc(O)c5-c5cc4ccc5O)C(O)c4ccc(c(Cl)c4)Oc4cc3cc(c4O)Oc3ccc(cc3Cl)CC1NC(=O)C(NCc1ccc(-c3ccccc3)cc1)c1ccc(O)c(c1)Oc1cc(O)cc2c1 (stereo not drawn)
a: > 50 µM

q: If you can, please state the reported CC50 value of CCCCc1ccc(CN2CCN(Cc3c(O)cc4c(c3O)-c3cc(ccc3O)C3NC(=O)C5NC(=O)C6NC(=O)C(Cc7ccc(c(Cl)c7)Oc7cc5cc(c7O)Oc5ccc(cc5Cl)C(O)C(NC3=O)C(=O)NC4C(=O)NC)NC(=O)C(N)c3ccc(O)c(c3)Oc3cc(O)cc6c3)CC2)cc1 (stereo not drawn) .
a: > 200 µM

Field: next compound
q: Any idea what its CC50 is? The compound is CCCCCCCCCC[N+](C)(C)CCCNC(=O)C1NC(=O)C2NC(=O)C(NC(=O)C3NC(=O)C4NC(=O)C(Cc5ccc(c(Cl)c5)Oc5cc3cc(c5O)Oc3ccc(cc3Cl)C2O)NC(=O)C(N)c2ccc(O)c(c2)Oc2cc(O)cc4c2)c2ccc(O)c(c2)-c2c(O)cc(O)cc21 (stereo not drawn)
a: > 200 µM

* * *

Tested on: HIV-1 (IIIB)
Test: Inhibition of HIV-1 (IIIB)-induced cytopathicity (giant cell formation) in CEM cells
Assay type: cell-based
Details: read-out: EC50 HIV-1 (concentration required to inhibit HIV-induced giant cell formation by 50%); HIV-1, CEM cell cultures
OBSERVATION TYPE: EC50 (µM)
Give the number; µM is assumed, so skip it.

q: Request: EC50, test system HIV-1 (IIIB), entry NC1C(=O)NC2Cc3ccc(c(Cl)c3)Oc3cc4cc(c3O)Oc3ccc(cc3Cl)C(O)C3NC(=O)C(NC(=O)C4NC(=O)C(NC2=O)c2cc(O)cc(c2)Oc2cc1ccc2O)c1ccc(O)c(c1)-c1c(cc(O)c(CNC2C4CC5CC(C4)CC2C5)c1O)C(C(=O)NC1C2CC4CC(C2)CC1C4)NC3=O (stereo not shown)
a: 2.5

q: Checklist item: EC50 tested on HIV-1 (IIIB), entry CNC(=O)C1NC(=O)C2NC(=O)C(NC(=O)C3NC(=O)C4NC(=O)C(Cc5ccc(c(Cl)c5)Oc5cc3cc(c5O)Oc3ccc(cc3Cl)C2O)NC(=O)C(N)c2ccc(O)c(c2)Oc2cc(O)cc4c2)c2ccc(O)c(c2)-c2c1cc(O)c(CNC1C3CC4CC(C3)CC1C4)c2O (stereo not shown) , value?
a: 5

q: Can you look up EC50 on HIV-1 (IIIB) for O=C1NC2C(=O)NC3C(=O)NC4C(=O)NC(C(=O)NC(C(=O)O)c5cc(O)cc(O)c5-c5cc4ccc5O)C(O)c4ccc(c(Cl)c4)Oc4cc3cc(c4O)Oc3ccc(cc3Cl)CC1NC(=O)C(NC(=O)C13CC4CC(CC(C4)C1)C3)c1ccc(O)c(c1)Oc1cc(O)cc2c1 (stereo not shown) ?
a: 10

q: Give EC50 (HIV-1 (IIIB)) of the following compound: CCCCCCCCCCCNC1C(=O)NC2Cc3ccc(c(Cl)c3)Oc3cc4cc(c3O)Oc3ccc(cc3Cl)C(O)C3NC(=O)C(NC(=O)C4NC(=O)C(NC2=O)c2cc(O)cc(c2)Oc2cc1ccc2O)c1ccc(O)c(c1)-c1c(O)cc(O)cc1C(C(=O)NCCCN(C)C)NC3=O (stereo not shown)
a: 5.5
